# target or system: LdG5K (Leishmania donovani, UniProt A0A0R6Y3I5)
# Construct: gene G5K; tetramer about 105 kDa
# Sequence (A0A0R6Y3I5 whole entry): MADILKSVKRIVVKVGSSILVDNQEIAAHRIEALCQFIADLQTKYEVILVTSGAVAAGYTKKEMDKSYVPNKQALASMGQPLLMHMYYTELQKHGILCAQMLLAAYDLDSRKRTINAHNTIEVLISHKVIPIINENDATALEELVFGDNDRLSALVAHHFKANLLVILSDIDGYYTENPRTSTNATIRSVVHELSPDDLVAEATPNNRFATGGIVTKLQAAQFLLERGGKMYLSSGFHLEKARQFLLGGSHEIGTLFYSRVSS
# procedure text: PK/LDH-coupled NADH oxidation assay
# Assay type: biochemical
observable: pIC50
// pIC50 here means minus log10 of the molar concentration (mol/L)

O=C(O)[C@@H]1CCCN1: 3.41
O=C(O)[C@@H]1CCN1: 3.14
O=C(O)[C@@H]1CSCN1: 2.74

Could you now consider this next molecule?
Qu. Fill in pIC50 for record O=C(O)C1C=CCN1 (racemic) [3,4‐dehydro‐D,L‐proline]
Ans. 3.31

* * *

# target or system: LdG5K (Leishmania donovani, UniProt A0A0R6Y3I5)
# Construct: gene G5K; tetramer about 105 kDa
# procedure text: PK/LDH-coupled NADH oxidation assay, single point
# Format: biochemical
# experimental context: 1 mM compound; 100 mM Na glutamate, 5 mM ATP, 5 mM MgCl2, pH 7.4, 25 °C
Below: a set of entries, each annotated with reported LdG5K activity (%) with 1 mM.
State the answer as a number, implicitly in %.

Solved cases below.
C[C@@]1(C(=O)O)CCCN1: 82
O=C(O)[C@@H]1C[C@@H](O)CN1 [Trans‐4‐hydroxy‐L‐proline]: 89
O=C(O)[C@H]1CN[C@H](C(=O)O)C1: 84

--- query ---
Qu. For the compound O=C(O)[C@@H]1C[C@H](O)CN1 [Cis‐4‐hydroxy‐L‐proline] , give its reported LdG5K activity (%) with 1 mM.
Ans. 87
